# tested system: MAPKAPK2 (Homo sapiens)
# Sequence (P49137 whole entry, species assumed): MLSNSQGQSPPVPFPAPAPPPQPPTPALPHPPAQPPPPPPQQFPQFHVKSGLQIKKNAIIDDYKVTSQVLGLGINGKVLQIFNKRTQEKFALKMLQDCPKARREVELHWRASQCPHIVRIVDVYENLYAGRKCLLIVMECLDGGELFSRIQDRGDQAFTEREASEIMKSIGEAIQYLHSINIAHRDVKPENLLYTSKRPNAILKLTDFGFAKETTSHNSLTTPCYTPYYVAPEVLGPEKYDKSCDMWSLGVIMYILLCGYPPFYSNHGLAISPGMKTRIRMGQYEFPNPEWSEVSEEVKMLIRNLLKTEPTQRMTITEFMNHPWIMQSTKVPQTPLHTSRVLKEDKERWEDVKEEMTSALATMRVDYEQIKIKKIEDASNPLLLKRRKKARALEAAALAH
pIC50: −log10 of the molar value.

| compound | pIC50 |
| --- | --- |
| CCN1C(=O)N(c2c(F)c(OC)cc(OC)c2F)Cc2cnc3[nH]c(CN4CCOCC4)cc3c21 [INCB054828, pemigatinib] | < 5.00 |

###

# assay protocol: Pharmacokinetic analyses
# Format: in vivo, Sprague Dawley rats
# particulars: Sprague Dawley, plasma; male rat, intravenous 1 mg/kg; read-out: t½ (converted)

| molecule | unit abbrev | half-life |
| --- | --- | --- |
| CCN1C(=O)N(c2c(F)c(OC)cc(OC)c2F)Cc2cnc3[nH]c(CN4CCOCC4)cc3c21 | h | 4 |

###

# assay protocol: Pharmacokinetic analyses
# Assay type: in vivo, Sprague Dawley rats
# particulars: Sprague Dawley, plasma; male rat, intravenous 1 mg/kg
# Procedure: The i.v. formulation in rats was 5% dimethylacetamide (DMAC) and 25% sulfobutyl ether β-cyclodextrin in acidified saline (pH 3). The i.v. formulation in dogs and monkeys was 5% DMAC and 20% sulfobutyl ether β-cyclodextrin in saline. The oral formulation in all species was 5% DMAC in 0.5% methylcellulose aqueous solution. […] The plasma was protein precipitated and the diluted supernatant was analyzed using LC/MS/MS. […] The pharmacokinetic parameters were determined using WinNonLin 6.3.

| molecule | clearance, mL/min/kg |
| --- | --- |
| CCN1C(=O)N(c2c(F)c(OC)cc(OC)c2F)Cc2cnc3[nH]c(CN4CCOCC4)cc3c21 | 17.2 |

###

# tested system: CYP2C19 (Homo sapiens)
# Sequence (P33261 whole entry): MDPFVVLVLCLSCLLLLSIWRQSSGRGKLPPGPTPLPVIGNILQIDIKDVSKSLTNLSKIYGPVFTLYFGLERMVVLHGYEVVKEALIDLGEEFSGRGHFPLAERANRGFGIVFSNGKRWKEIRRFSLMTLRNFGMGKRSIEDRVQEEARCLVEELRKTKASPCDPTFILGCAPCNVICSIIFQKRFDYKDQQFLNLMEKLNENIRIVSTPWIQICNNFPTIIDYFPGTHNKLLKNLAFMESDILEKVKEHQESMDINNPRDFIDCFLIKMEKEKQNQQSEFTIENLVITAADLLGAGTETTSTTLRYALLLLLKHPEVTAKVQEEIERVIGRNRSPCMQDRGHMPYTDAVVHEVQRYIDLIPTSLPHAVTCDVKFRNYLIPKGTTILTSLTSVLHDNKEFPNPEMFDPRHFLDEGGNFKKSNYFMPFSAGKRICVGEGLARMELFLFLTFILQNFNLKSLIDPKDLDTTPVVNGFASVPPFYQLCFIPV

| molecule | IC50 |
| --- | --- |
| CCN1C(=O)N(c2c(F)c(OC)cc(OC)c2F)Cc2cnc3[nH]c(CN4CCOCC4)cc3c21 | > 25 µM |

###

# tested system: PIM1 (Homo sapiens)
# Sequence (P11309 whole entry, species assumed): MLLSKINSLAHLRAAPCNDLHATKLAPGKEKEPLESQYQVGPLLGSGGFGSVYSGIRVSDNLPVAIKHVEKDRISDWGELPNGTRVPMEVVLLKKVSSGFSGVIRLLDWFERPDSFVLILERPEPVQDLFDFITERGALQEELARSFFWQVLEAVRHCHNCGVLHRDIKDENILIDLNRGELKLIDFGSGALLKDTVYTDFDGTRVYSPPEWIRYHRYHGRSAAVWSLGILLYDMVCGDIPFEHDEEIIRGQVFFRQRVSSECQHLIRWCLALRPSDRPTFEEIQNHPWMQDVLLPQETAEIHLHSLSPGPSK
pIC50: −log10 of the molar value.

| compound | pIC50 |
| --- | --- |
| CCN1C(=O)N(c2c(F)c(OC)cc(OC)c2F)Cc2cnc3[nH]c(CN4CCOCC4)cc3c21 [INCB054828, pemigatinib] | < 5.00 |

###

# tested system: RPS6KB1 (Homo sapiens, UniProt P23443)
# Sequence (P23443 whole entry, species assumed): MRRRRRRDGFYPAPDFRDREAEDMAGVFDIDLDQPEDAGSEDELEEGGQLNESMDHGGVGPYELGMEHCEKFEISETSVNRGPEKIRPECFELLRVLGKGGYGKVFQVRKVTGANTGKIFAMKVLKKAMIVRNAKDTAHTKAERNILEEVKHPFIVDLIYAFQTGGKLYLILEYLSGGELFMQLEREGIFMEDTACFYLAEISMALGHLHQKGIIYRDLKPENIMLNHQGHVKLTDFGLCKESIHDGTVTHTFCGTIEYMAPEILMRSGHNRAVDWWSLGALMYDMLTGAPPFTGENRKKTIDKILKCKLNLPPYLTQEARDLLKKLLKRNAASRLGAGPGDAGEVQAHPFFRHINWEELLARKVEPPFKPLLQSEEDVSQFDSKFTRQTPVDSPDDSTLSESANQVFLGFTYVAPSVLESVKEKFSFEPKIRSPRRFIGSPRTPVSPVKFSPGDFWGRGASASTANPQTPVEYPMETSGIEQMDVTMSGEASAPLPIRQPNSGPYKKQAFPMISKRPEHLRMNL

| molecule | IC50 |
| --- | --- |
| CCN1C(=O)N(c2c(F)c(OC)cc(OC)c2F)Cc2cnc3[nH]c(CN4CCOCC4)cc3c21 | > 10 µM |

###

# tested system: PHKG2 (Homo sapiens, UniProt P15735)
# Sequence (P15735 1-406): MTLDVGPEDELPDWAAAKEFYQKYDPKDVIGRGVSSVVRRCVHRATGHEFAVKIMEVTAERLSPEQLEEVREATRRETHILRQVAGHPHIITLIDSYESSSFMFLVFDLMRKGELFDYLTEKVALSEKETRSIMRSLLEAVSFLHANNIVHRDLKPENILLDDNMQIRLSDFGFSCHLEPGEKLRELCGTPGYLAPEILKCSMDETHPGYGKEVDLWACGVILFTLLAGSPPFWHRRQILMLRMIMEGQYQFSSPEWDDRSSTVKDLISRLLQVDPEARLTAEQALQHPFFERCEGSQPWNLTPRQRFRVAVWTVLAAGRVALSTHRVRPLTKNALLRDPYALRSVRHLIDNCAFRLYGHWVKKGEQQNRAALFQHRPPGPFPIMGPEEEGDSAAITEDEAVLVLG
attribute measured: IC50

| molecule | attribute measured | measured |
| --- | --- | --- |
| CCN1C(=O)N(c2c(F)c(OC)cc(OC)c2F)Cc2cnc3[nH]c(CN4CCOCC4)cc3c21 | IC50 | > 10 µM |

###

# tested system: PKCD (Homo sapiens)
# Sequence (Q05655 whole entry, species assumed): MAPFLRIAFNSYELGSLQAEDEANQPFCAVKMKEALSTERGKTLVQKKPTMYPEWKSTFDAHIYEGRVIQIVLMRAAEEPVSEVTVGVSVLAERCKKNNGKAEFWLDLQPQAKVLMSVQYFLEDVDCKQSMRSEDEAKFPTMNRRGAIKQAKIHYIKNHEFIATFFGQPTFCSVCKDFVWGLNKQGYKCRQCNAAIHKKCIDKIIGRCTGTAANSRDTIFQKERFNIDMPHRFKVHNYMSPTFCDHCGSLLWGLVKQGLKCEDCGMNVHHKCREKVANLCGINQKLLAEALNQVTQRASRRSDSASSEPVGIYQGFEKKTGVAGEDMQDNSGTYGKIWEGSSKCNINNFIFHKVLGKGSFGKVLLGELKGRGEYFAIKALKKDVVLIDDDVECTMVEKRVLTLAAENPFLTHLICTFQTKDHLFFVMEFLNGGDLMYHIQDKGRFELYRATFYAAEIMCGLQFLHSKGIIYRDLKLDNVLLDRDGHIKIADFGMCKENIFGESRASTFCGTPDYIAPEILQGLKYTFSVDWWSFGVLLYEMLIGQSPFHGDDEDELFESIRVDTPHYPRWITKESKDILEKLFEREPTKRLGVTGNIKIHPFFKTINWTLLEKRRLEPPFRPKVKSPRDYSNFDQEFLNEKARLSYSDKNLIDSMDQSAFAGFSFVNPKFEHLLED
attribute measured: IC50

| compound | attribute measured | measured |
| --- | --- | --- |
| CCN1C(=O)N(c2c(F)c(OC)cc(OC)c2F)Cc2cnc3[nH]c(CN4CCOCC4)cc3c21 [INCB054828, pemigatinib] | IC50 | > 10 µM |

###

# tested system: UniProt P54760
# Sequence (P54760 16-987): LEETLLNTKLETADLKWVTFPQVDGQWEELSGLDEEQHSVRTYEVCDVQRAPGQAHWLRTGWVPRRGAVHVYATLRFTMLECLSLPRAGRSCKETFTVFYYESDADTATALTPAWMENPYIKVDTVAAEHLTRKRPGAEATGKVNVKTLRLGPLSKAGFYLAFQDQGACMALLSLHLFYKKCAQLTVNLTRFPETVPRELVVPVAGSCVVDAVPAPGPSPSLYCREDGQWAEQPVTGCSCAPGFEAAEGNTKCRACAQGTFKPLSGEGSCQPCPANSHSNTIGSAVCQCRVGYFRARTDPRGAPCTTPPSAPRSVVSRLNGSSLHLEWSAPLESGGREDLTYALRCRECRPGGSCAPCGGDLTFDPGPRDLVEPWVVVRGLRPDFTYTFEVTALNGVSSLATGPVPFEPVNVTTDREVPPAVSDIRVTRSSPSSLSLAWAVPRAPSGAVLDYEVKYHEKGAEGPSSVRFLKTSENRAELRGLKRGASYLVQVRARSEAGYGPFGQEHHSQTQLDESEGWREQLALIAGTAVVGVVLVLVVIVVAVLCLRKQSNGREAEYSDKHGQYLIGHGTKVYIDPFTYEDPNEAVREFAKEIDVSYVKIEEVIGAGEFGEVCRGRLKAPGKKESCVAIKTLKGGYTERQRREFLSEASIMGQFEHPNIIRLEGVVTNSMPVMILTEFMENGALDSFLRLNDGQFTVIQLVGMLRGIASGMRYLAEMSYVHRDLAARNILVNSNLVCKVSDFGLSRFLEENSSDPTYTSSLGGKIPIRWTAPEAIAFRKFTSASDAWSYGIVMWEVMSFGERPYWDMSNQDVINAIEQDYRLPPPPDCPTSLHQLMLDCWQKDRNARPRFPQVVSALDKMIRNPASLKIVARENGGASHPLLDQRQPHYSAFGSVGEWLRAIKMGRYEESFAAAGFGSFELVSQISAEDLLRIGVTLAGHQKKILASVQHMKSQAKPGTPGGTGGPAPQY
pIC50: −log10 of the molar value.
attribute measured: pIC50

| molecule | attribute measured | measured |
| --- | --- | --- |
| CCN1C(=O)N(c2c(F)c(OC)cc(OC)c2F)Cc2cnc3[nH]c(CN4CCOCC4)cc3c21 | pIC50 | < 5.00 |

###

# assay protocol: Pharmacokinetic analyses
# Type: in vivo, Sprague Dawley rats
# particulars: Sprague Dawley, plasma; male rat, oral 2 mg/kg
# Protocol: The i.v. formulation in rats was 5% dimethylacetamide (DMAC) and 25% sulfobutyl ether β-cyclodextrin in acidified saline (pH 3). The i.v. formulation in dogs and monkeys was 5% DMAC and 20% sulfobutyl ether β-cyclodextrin in saline. The oral formulation in all species was 5% DMAC in 0.5% methylcellulose aqueous solution. […] The plasma was protein precipitated and the diluted supernatant was analyzed using LC/MS/MS. […] The pharmacokinetic parameters were determined using WinNonLin 6.3.
attribute measured: Cmax (nM)

| compound | unit abbrev | measured |
| --- | --- | --- |
| CCN1C(=O)N(c2c(F)c(OC)cc(OC)c2F)Cc2cnc3[nH]c(CN4CCOCC4)cc3c21 [INCB054828, pemigatinib] | nM | 2260 |

###

# assay protocol: Pharmacokinetic analyses
# Format: in vivo, Sprague Dawley rats
# particulars: Sprague Dawley, plasma; male rat, oral 2 mg/kg

| molecule | bioavailability |
| --- | --- |
| CCN1C(=O)N(c2c(F)c(OC)cc(OC)c2F)Cc2cnc3[nH]c(CN4CCOCC4)cc3c21 | > 100% |

###

# tested system: IKKB (Homo sapiens, UniProt O14920)
# Sequence (O14920 whole entry, species assumed): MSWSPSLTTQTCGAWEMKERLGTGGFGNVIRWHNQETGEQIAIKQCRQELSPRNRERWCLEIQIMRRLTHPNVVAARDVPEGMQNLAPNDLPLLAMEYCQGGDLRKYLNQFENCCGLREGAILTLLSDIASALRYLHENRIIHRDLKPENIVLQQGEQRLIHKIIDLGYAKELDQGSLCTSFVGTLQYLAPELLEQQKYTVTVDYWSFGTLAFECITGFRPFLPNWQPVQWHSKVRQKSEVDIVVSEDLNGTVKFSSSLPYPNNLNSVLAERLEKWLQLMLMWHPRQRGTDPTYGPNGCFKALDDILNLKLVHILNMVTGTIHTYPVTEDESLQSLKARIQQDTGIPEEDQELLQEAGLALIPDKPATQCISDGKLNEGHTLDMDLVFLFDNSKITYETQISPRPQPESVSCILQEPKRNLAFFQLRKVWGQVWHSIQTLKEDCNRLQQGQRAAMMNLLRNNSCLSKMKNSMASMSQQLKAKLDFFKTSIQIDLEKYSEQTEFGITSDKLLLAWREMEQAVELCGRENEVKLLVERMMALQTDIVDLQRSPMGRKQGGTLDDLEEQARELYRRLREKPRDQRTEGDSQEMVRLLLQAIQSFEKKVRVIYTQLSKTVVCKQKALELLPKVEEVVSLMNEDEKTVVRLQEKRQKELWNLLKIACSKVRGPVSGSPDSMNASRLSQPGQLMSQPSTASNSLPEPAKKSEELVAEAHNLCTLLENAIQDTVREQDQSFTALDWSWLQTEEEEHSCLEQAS
pIC50: −log10 of the molar value.

| molecule | pIC50 |
| --- | --- |
| CCN1C(=O)N(c2c(F)c(OC)cc(OC)c2F)Cc2cnc3[nH]c(CN4CCOCC4)cc3c21 | < 5.00 |

###

# tested system: PDGFR BETA (Homo sapiens, UniProt P09619)

| molecule | tested system | IC50 |
| --- | --- | --- |
| CCN1C(=O)N(c2c(F)c(OC)cc(OC)c2F)Cc2cnc3[nH]c(CN4CCOCC4)cc3c21 [INCB054828, pemigatinib] | PDGFR BETA (Homo sapiens, UniProt P09619) | 1790 nM |

###

# tested system: EGFR (Homo sapiens)
# Sequence (P00533 25-1210, species assumed): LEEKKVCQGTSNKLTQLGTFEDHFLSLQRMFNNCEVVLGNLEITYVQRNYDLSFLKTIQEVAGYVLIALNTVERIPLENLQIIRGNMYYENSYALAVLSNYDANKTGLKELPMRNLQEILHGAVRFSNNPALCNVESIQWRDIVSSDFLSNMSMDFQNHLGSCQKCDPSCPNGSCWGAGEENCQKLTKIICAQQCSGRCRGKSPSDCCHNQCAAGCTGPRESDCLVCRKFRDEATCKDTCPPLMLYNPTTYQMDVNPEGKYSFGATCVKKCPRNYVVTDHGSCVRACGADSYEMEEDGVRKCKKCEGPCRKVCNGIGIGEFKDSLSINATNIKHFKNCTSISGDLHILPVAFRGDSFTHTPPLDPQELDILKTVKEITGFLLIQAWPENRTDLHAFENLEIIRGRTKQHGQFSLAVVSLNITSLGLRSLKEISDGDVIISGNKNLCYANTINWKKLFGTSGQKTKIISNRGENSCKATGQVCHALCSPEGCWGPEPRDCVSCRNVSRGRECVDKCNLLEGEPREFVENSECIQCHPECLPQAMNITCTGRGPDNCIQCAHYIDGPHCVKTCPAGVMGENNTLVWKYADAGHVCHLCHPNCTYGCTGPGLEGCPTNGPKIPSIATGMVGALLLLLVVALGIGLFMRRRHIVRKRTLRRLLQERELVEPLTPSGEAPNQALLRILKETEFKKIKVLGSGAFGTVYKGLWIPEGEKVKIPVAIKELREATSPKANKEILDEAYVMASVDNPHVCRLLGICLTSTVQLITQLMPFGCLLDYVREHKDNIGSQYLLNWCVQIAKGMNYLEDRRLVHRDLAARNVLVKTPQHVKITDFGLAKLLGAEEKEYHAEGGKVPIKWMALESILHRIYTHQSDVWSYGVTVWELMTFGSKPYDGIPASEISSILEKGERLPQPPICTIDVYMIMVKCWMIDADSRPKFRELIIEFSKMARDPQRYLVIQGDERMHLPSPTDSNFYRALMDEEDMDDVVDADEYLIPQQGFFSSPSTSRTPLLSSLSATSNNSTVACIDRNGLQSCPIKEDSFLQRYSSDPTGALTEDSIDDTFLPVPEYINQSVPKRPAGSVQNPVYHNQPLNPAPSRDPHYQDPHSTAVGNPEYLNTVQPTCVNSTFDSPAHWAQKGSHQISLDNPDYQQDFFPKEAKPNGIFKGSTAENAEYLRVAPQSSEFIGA
attribute measured: IC50

| compound | tested system | attribute measured | measured |
| --- | --- | --- | --- |
| CCN1C(=O)N(c2c(F)c(OC)cc(OC)c2F)Cc2cnc3[nH]c(CN4CCOCC4)cc3c21 [INCB054828, pemigatinib] | EGFR (Homo sapiens) | IC50 | > 10 µM |

###

# tested system: LOK (Homo sapiens, UniProt O94804)
pIC50: −log10 of the molar value.

| molecule | tested system | pIC50 |
| --- | --- | --- |
| CCN1C(=O)N(c2c(F)c(OC)cc(OC)c2F)Cc2cnc3[nH]c(CN4CCOCC4)cc3c21 [INCB054828, pemigatinib] | LOK (Homo sapiens, UniProt O94804) | < 5.00 |
